TGI values for the compounds below.
test system: HCT-116 colon; test: NCI tumour cell line growth inhibition, 48 h

Compound: O=C(/C=C/C12c3ccccc3C(c3ccccc31)C1C(=O)NC(=O)C12)c1ccc(Cl)cc1Cl (centres undefined)
TGI: 3.05 µM

Request: Entry COc1c(/C=C/C(C)(C)O)cc(C2CC(=O)c3c(O)cc(O)cc3O2)cc1CC=C(C)C (centres undefined) : reported TGI = ?
Result: 18.4 µM

Request: Entry O=C1c2ccccc2-[n+]2ccc3c([nH]c4ccccc43)c21 : reported TGI = ?
Result: 0.51 µM

Request: Entry CC(=O)OCC1OC(n2cc(F)c(=O)[nH]c2=O)C(NC(=O)OCc2ccccc2)C(OC(C)=O)C1OC(C)=O (centres undefined) : reported TGI = ?
Result: > 100 µM

Request: Entry O=C(NOC[C@H](O)CO)c1ccc(F)c(F)c1Nc1ccc(I)cc1F : reported TGI = ?
Result: > 100 µM

Request: Entry COc1ccc2nc(-c3ccccc3)cc(OCC(=O)O)c2c1 : reported TGI = ?
Result: > 100 µM

----------
tested on: M14 melanoma; test: NCI tumour cell line growth inhibition, 48 h
Readout name: GI50

Molecule: COc1ccc(/C=C/C(=O)/C=C/c2cc3ccccc3[nH]c2=O)cc1
Measured on: M14 melanoma
GI50: 2.8 µM

Molecule: COc1ccc2cc(/C=C/C(=O)c3ccc(Cl)cc3Cl)ccc2c1
Measured on: M14 melanoma
GI50: 30.5 µM

Molecule: CC(=O)c1c(C)nc(SSc2nc(C)c(C(C)=O)c(-c3ccc(Cl)cc3)c2C#N)c(C#N)c1-c1ccc(Cl)cc1
Measured on: M14 melanoma
GI50: 81.5 µg/mL

Molecule: S=c1snc2n1CCN2
Measured on: M14 melanoma
GI50: > 100 µM

Molecule: [C](#Cc1ccccc1)[Hg][C]#Cc1ccccc1
Measured on: M14 melanoma
GI50: 75.1 µM

Request: Entry FC(F)(c1ccc2ncccc2c1)c1nnc2ccc(-c3ccncc3)nn12 : reported GI50 = ?
Result: > 100 µM

Request: Entry O=C(/C=C/C12c3ccccc3C(c3ccccc31)C1C(=O)NC(=O)C12)c1ccc(Cl)cc1Cl (configuration not stated) : reported GI50 = ?
Result: 1.83 µM

----------
system: ACHN renal; test: NCI tumour cell line growth inhibition, 48 h
log10(TGI) values for the molecules below.
The base-10 logarithm of TGI, taken with TGI in µM, is what appears here.

The cases that follow already have their log10(TGI) on record.
Molecule: [C](#Cc1ccccc1)[Hg][C]#Cc1ccccc1
log10(TGI): 1.62

Molecule: COc1ccc(N=NC(C(=O)c2ccccc2)C(=O)c2ccccc2)cc1
log10(TGI): 1.94

Molecule: COc1ccc(NC(=O)/C(=C/c2ccccc2)C(C)=O)cc1
log10(TGI): 1.63

Molecule: O=C(N/N=C/c1cc(Cl)cc(Cl)c1[O-])c1ccccc1O.O=C(N/N=C/c1cc(Cl)cc(Cl)c1[O-])c1ccccc1O.[Co+2]
log10(TGI): 1.03

Molecule: Cc1ncc(C(=O)Nc2ccc(CN3CCN(C)CC3)c(C(F)(F)F)c2)cc1C#Cc1cnc2cccnn12
log10(TGI): 0.18

Molecule: CCCCCCCCCCCCCCCCCC1=NC(C)(C)CN1CC(C)O (stereo unspecified)
log10(TGI): 1.34

Request: Entry CO/N=C(/C)c1cccc(Nc2nc3ccccc3c3[nH]c4ccccc4c23)c1 : reported log10(TGI) = ?
Result: 1.11

Request: Entry Clc1ccc(C(c2ccccc2Cl)C(Cl)Cl)cc1 (stereo unspecified) : reported log10(TGI) = ?
Result: 1.59

Request: Entry C=CCC1CC(n2cc(C)c(=O)[nH]c2=O)OC1CO[Si](C)(C)C(C)(C)C (stereo unspecified) : reported log10(TGI) = ?
Result: 1.47
